Target: EGFR N771dupN G724S (Homo sapiens, UniProt P00533, DUP771-771/G724S)
Construct: expressed in transfected cells; host or cells: Ba/F3 cells, retroviral pBabe-Puro vector (vector made by GeneScript from EGFR G724S, c.2313_2314insAAC)
Experiment: Ba/F3 drug screening, Cell Titer Glo, IC50 Mut/WT
Type: cell-based
Details: Ex20, 72 hours
Threshold 1: ratio of IC50 for cells with mutant EGFR to IC50 for cells with wildtype EGFR (Mut/WT) strictly smaller gives Yes, otherwise No.

smiles: Cc1cc(C(=O)Nc2nc3cccc(Cl)c3n2[C@@H]2CCCCN(C(=O)/C=C/CN(C)C)C2)ccn1
assignedClass: Yes
//
smiles: C=CC(=O)Nc1cc(Nc2nccc(-c3c[nH]c4ccccc34)n2)c(OC)cc1N(C)CCN(C)C
assignedClass: No
//
smiles: C=CC(=O)Nc1cc(Nc2ncc(C(=O)OC(C)C)c(-c3cn(C)c4ccccc34)n2)c(OC)cc1N(C)CCN(C)C
assignedClass: No
//
smiles: C=CC(=O)N[C@H]1C=C(C)c2c(-c3cnc4ccccc4c3)c3c(N)ncnc3n2C1
assignedClass: Yes
//
smiles: COc1cc2ncnc(Nc3cccc(Cl)c3F)c2cc1OC(=O)N1CCN(C)C[C@H]1C
assignedClass: No
//
smiles: CN(C)C/C=C/C(=O)Nc1cc2c(Nc3ccc(Cl)c(Br)c3)ncnc2cn1
assignedClass: Yes
//
smiles: CNC(=O)CN1CCC(Oc2cc3c(Nc4cccc(Cl)c4F)ncnc3cc2OC)CC1
assignedClass: No
//
smiles: C=CC(=O)Nc1cccc(Oc2nc(Nc3ccc(N4CCN(C)CC4)cc3)nc3ccsc23)c1
assignedClass: Yes
//
smiles: C=CC(=O)N1CC[C@@H](Oc2nc(Nc3ccc(N4CCC(N5CCN(C)CC5)CC4)cc3)c(C(N)=O)nc2CC)C1
assignedClass: No
//
smiles: COc1cc2ncnc(Nc3ccc(F)c(Cl)c3)c2cc1NC(=O)/C=C/CN1CCCCC1
assignedClass: No

Each recorded value in this set is attributed to patent US20240384350A1.
